# Method description: chemical genetic growth profiling, strain panel (AID 1159580);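 further: tested at 20 µM; growth read once vehicle control cultures reached saturation at 30 °C; 1 = growth at the plate median or of vehicle wells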
# Test context: S. cerevisiae deletion strains, growth OD, locus YDL185W, strain tfp1, stronger effect = lower value
In all, about 5,500 compounds went through this assay and about 2,000 (36%) were called active. About 18% were inconclusive and are not listed. Some of the results follow.
Result type: normalized growth

                                   compound        result_type  observed
0       CC1OC1P(=O)(O)O (centres undefined)  normalized growth     0.979
1                CCN(CC)CCOC(=O)c1ccc(N)cc1  normalized growth     0.995
2              CCCCOC(=O)c1ccccc1C(=O)OCCCC  normalized growth     0.961
3  COc1cc(-c2coc3cc(OCc4ccccc4)c(OC)c(O)c3c2=O)cc(O)c1OC  normalized growth     0.968
4                      O=c1cc[nH]c(=S)[nH]1  normalized growth      1.01
5              CCCCNc1ccc(C(=O)OCCN(C)C)cc1  normalized growth      1.02
6  CC(C)COCC(CN(Cc1ccccc1)c1ccccc1)N1CCCC1 (centres undefined)  normalized growth     0.978
7  COc1cc(-c2coc3cc(OC)c(OC)c(OC)c3c2=O)cc(OC)c1OC  normalized growth     0.968
8  CCCC(=O)O[C@]1(C(=O)CO)CCC2[C@@H]3CCC4=CC(=O)CC[C@]4(C)C3[C@@H](O)C[C@@]21C (some centres undefined)  normalized growth     0.965

---

# Method description: chemical genetic growth profiling, strain panel (AID 1159580);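 further: tested at 20 µM; growth read once vehicle control cultures reached saturation at 30 °C; 1 = growth at the plate median or of vehicle wells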
# Test context: S. cerevisiae deletion strains, growth OD, locus YOR083W, strain WHI5
Out of some 5,500 compounds screened, about 2,000 (36%) were called active. Another 18% or so got no clear call; they are omitted. No stated cut-off is given here; in the data, active means normalized growth mostly below about 0.91 (no sharp cut-off); inconclusive means no clear call, values can overlap the other calls; inactive means mostly above about 0.92. Some of the results follow.
Classes used: YES = active, NO = inactive

>>> df
                                    compound  discrete_label
 0      COc1cc2occ(-c3ccccc3)c(=O)c2c(OC)c1C              NO
 1                CCN(CC)CCOC(=O)c1ccc(N)cc1              NO
 2  NS(=O)(=O)c1cc2c(cc1Cl)NC(C(Cl)Cl)NS2(=O)=O (stereo unspecified)              NO
 3                     CCCCOC(=O)c1ccc(N)cc1             YES
 4  C=C1C(=O)O[C@@H]2C3O[C@]3(C)CC/C=C(\C)CC[C@@H]12 (stereo partly specified)              NO
 5  C=CCSCC1Nc2cc(Cl)c(S(N)(=O)=O)cc2S(=O)(=O)N1 (stereo unspecified)              NO
 6  Cc1c(S(=O)(=O)O)oc2c1C(=O)C(=O)c1c-2ccc2c1CCCC2(C)C             YES
 7           Cc1cc(-c2ccccc2)nnc1NCCN1CCOCC1              NO
 8             O=C(Cn1ccnc1[N+](=O)[O-])NCCO              NO
 9  CO[C@@]1(NC(=O)CSCC#N)C(=O)N2C(C(=O)O)=C(CSc3nnnn3C)CSC21 (stereo partly specified)              NO
10  O=C(C1CCCCC1)N1CC(=O)N2CCc3ccccc3C2C1 (stereo unspecified)              NO
11              CCCCNc1ccc(C(=O)OCCN(C)C)cc1              NO
12  C[C@H]1COC2=C1C(=O)C(=O)c1c2ccc2c1CCCC2(C)C             YES
13                      O=c1cc[nH]c(=S)[nH]1              NO
14           CCCCN(CCCC)CCCOC(=O)c1ccc(N)cc1              NO
15                Cn1c(=O)c2[nH]cnc2n(C)c1=O              NO
16                   Clc1cccc(Cl)c1NC1=NCCN1              NO
17       COc1cc(OC)c2c(=O)c(-c3ccccc3)coc2c1              NO
18  NC(CO)C(=O)NNCc1ccc(O)c(O)c1O (stereo unspecified)              NO
19            CCCOc1ccc(C(=O)OCCN(CC)CC)cc1N              NO
20  COc1cc(-c2coc3cc(OC)c(OC)c(OC)c3c2=O)cc(OC)c1OC              NO
21               Cc1cccc(Nc2ccccc2C(=O)O)c1C              NO
22                   CC(=O)N[C@@H](CS)C(=O)O              NO
23  CC1(C)NC(=O)N(c2ccc([N+](=O)[O-])c(C(F)(F)F)c2)C1=O              NO
24              Cc1c(Cl)cccc1Nc1ccccc1C(=O)O             YES
25   Cc1coc2c1C(=O)C(=O)c1c-2ccc2c1CCCC2(C)C              NO

Hello, the source for this data is PubChem BioAssay AID1159580, in case you need it.
